Molecular target: SARS-CoV-2 Spike (S) protein, wild type (SARS-CoV-2, UniProt P0DTC2 14-1208)
Assay: HT-SPR Carterra LSA; mAb coupled to chip, Spike in solution; 1:1 Langmuir fit

{"BINDER": "anti-SARS-CoV-2 antibody 1075 (antibody, V domains shown) VH: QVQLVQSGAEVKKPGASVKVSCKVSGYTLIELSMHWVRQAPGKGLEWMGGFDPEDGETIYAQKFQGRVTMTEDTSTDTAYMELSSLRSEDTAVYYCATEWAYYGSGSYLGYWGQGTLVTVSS VL: EIVMTQSPATLSVSPGERATLSCRASQSVSSNLAWFQQKPGQAPRLLIYGASTRVTVIPARFSGSGSGTEFTLTISSLQSEDFAVYYCQQYNNWPRTFGQGTKVEIKR", "UNIT OF MEASUREMENT": "s⁻¹", "RELATION QUALIFIER": "=", "koff": "3.04e-05"}
{"BINDER": "anti-SARS-CoV-2 antibody 1149 (antibody, V domains shown) VH: QVQLVQSGAEVKKPGASVKVSCKASGYTFASYDINWVRQATGQGPEWMGWMIPNIGNTGYAQKFQGRVTMTRNTSISTAYMELSSLTSEDTAVYYCARVSRLFNDFGLRHEAPVDFWGQGTRVTVSS VL: QSVLTQPPSVSGAPGQRVTISCTGSSSNIGAGYDVHWYQQLPGTAPKLLIYGYSSRPSGVPDRFSGSKSGTSASLAITGLQAEDEADYYCQSYDSSLSVLFGGGTKLTVLG", "UNIT OF MEASUREMENT": "s⁻¹", "RELATION QUALIFIER": "≤", "koff": "1e-05"}
{"BINDER": "anti-SARS-CoV-2 antibody 1015 (antibody, V domains shown) VH: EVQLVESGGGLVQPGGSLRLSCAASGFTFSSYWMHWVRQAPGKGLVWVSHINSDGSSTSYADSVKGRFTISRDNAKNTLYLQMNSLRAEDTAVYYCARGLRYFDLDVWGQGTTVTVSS VL: QSVLTQPPSVSEAPRQRVTISCSGSSSNIGNNAVNWYQQLPGKAPKLLIFYDDLLPSGVSDRFSGSKSGTSASLAISGLQSEDEADYYCAAWDDSLNGGVFGGGTKLTVLG", "UNIT OF MEASUREMENT": "s⁻¹", "RELATION QUALIFIER": "=", "koff": "2.19e-05"}

Numbers sourced from patent US20220356229A1.
